test system: human colon carcinoma HT29; assay: Proliferation assay (IC50) under aerobic and hypoxic conditions, HT29; format: cell-based; settings: hypoxic cytotoxicity ratio = IC50 aerobic/IC50 hypoxic
endpoint.label: HCR
Lab note: record just the number, no unit beside it.

[O-][n+]1nc(NCCCN2CCOCC2)[n+]([O-])c2cc3c(cc21)CCCC3 [Compound 180]    25

Q) Look up HCR with human colon carcinoma HT29 for this compound: CCc1n[n+]([O-])c2cc3c(cc2[n+]1[O-])CC(CN1CCOCC1)C3 (stereo not drawn) [Compound 144]
A) 31

Q) Look up HCR with human colon carcinoma HT29 for this compound: COC1CN(CCCc2n[n+]([O-])c3cc4c(cc3[n+]2[O-])CCC4)C1 [Compound 83]
A) 249

* * *

Quick reference: melting point of the listed items.

COCCN(C)CCCNc1n[n+]([O-])c2cc3c(cc2[n+]1[O-])CCC3 [Compound 53]    77 to 79 °C

Q) Entry CCN(CC)CCNc1n[n+]([O-])c2c3c(ccc2[n+]1[O-])CCC3 [Compound 9] : reported melting point = ?
A) 138 to 141 °C

Q) Entry [O-][n+]1nc(NCCCO)[n+]([O-])c2cc3c(cc21)CCC3 [Compound 51] : reported melting point = ?
A) 182 to 184 °C

Q) Entry [O-][n+]1nc(NCCCN2CCOCC2)nc2cc3c(cc21)OCC3 [Compound 199] : reported melting point = ?
A) 142 to 144 °C

Q) Entry [O-][n+]1nc(CCCO)[n+]([O-])c2cc3c(cc21)CCC3 [Compound 71] : reported melting point = ?
A) 153 to 155 °C

* * *

Where a name gives a salt, the structure may show the parent alone.
Quick reference: melting point of the listed items.

Reference set, count: 5
[O-][n+]1nc(NCCCN2CCOCC2)nc2cc3c(cc21)CCO3    152 to 154 °C
[O-][n+]1nc(NCCN2CCCCC2)[n+]([O-])c2ccc3c(c21)CCC3    138 to 141 °C
C=CCc1nc2cc3c(cc2[n+]([O-])n1)CCC3    60 to 61 °C
[O-][n+]1nc(CCCO)nc2cc3c(cc21)CCC3    131 to 133 °C
[O-][n+]1nc(CCCN2CCOCC2)nc2cc3c(cc21)CC(CO)C3 (stereo not drawn) (as salt: hydrochloride)    210 to 212 °C

// moving on: another record for melting point
Q) Entry "CN(C)CCNc1nc2ccc3c(c2[n+]([O-])n1)CCCO3" : reported melting point = ?
A) 119 to 120 °C

* * *

tested on: human colon carcinoma HT29; assay: Proliferation assay (IC50) under aerobic and hypoxic conditions, HT29; format: cell-based; conditions: Homo sapiens, HT-29, hypoxic (anaerobic chamber, <0.001% O2), 4 h drug exposure, then 6 days growth, sulforhodamine B, read-out: IC50 (μM) hypoxic
Values of IC50 strictly less than 2 µM map to 1, and values of at least 2 µM map to -1.

Known results for compounds:
COCCN(C)CCNc1n[n+]([O-])c2cc3c(cc2[n+]1[O-])CCC3    -1
CN(C)CCNc1n[n+]([O-])c2cc3c(cc2[n+]1[O-])OCC3    -1
COC1CCN(CCNc2n[n+]([O-])c3cc4c(cc3[n+]2[O-])CCC4)CC1    -1
[O-][n+]1nc(NCCN2CCCCCC2)[n+]([O-])c2cc3c(cc21)CCC3    1

Now for another entry.
Q) Please check: IC50 for "[O-][n+]1cn[n+]([O-])c2cc3c(cc21)CCC3" , strictly under 2 µM or not?
A) -1
